Here, each record is paired with measured HCT-116 % Inhibition at 0.1 μM data.
# Test system: HCT-116 cell line
# METHOD NOTES: Inhibition of cell growth, MTT tetrazolium salt assay
# Type: cell-based
# TEST CONTEXT: HCT-116, at 0.1 μM

These recorded examples may help you get a feel for the data.
{"COMPOUND": "CCC(COC)NC(=O)c1ccc(Nc2nc(N)c(C(=O)c3c(F)cccc3F)s2)cc1 (stereo not shown) [Example G159]", "HCT-116 % Inhibition at 0.1 μM": "0%"}
{"COMPOUND": "Cc1nccc(-c2cccc(NC(=O)c3ccc(Nc4nc(N)c(C(=O)c5c(F)cccc5F)s4)cc3)c2)n1 [Example G87]", "HCT-116 % Inhibition at 0.1 μM": "54%"}
{"COMPOUND": "C=C(C)CN(C)C(=O)c1ccc(Nc2nc(N)c(C(=O)c3c(F)cccc3F)s2)cc1 [Example G182]", "HCT-116 % Inhibition at 0.1 μM": "23%"}
{"COMPOUND": "Nc1nc(Nc2ccc(C(=O)NCCc3ccc(Cl)cc3Cl)cc2)sc1C(=O)c1c(F)cccc1F [Example G196]", "HCT-116 % Inhibition at 0.1 μM": "13%"}
{"COMPOUND": "COc1cc(NC(=O)c2ccc(Nc3nc(N)c(C(=O)c4c(F)cccc4F)s3)cc2)cc(OC)c1 [Example G86]", "HCT-116 % Inhibition at 0.1 μM": "39%"}

[ask] Respond only with HCT-116 % Inhibition at 0.1 μM recorded for COC(=O)[C@H](C)NC(=O)c1ccc(Nc2nc(N)c(C(=O)c3c(F)cccc3F)s2)cc1 [Example G145]
[reply] 0%

[ask] Supply HCT-116 % Inhibition at 0.1 μM value. Item: CCN(CC)CCNC(=O)c1ccc(Nc2nc(N)c(C(=O)c3c(F)cccc3F)s2)cc1 [Example G157]
[reply] 0%

[ask] Tell me its HCT-116 % Inhibition at 0.1 μM given Nc1nc(Nc2ccc(C(=O)NC3CCCCC3)cc2)sc1C(=O)c1c(F)cccc1F [Example G139] as the entry.
[reply] 0%

[ask] Answer with the recorded HCT-116 % Inhibition at 0.1 μM of NC(=O)CCNC(=O)c1ccc(Nc2nc(N)c(C(=O)c3c(F)cccc3F)s2)cc1 [Example G137] only.
[reply] 0%

[ask] Using known records, supply HCT-116 % Inhibition at 0.1 μM for C#CCCN(CCCC)C(=O)c1ccc(Nc2nc(N)c(C(=O)c3c(F)cccc3F)s2)cc1 [Example G171]
[reply] 30%

[ask] Specify HCT-116 % Inhibition at 0.1 μM for CNC(=O)C(C)NC(=O)c1ccc(Nc2nc(N)c(C(=O)c3c(F)cccc3F)s2)cc1 (stereo not shown) [Example G192] and stop.
[reply] 13%

[ask] Could you please provide reported HCT-116 % Inhibition at 0.1 μM for Nc1nc(Nc2ccc(C(=O)NCCN3CCOCC3)cc2)sc1C(=O)c1c(F)cccc1F [Example G124] ? Thanks!
[reply] 0%

[ask] Return reported HCT-116 % Inhibition at 0.1 μM. Input compound: CC(C)[C@@H](CO)NC(=O)c1ccc(Nc2nc(N)c(C(=O)c3c(F)cccc3F)s2)cc1 [Example G152]
[reply] 5%

[ask] Output measured HCT-116 % Inhibition at 0.1 μM for this item: Nc1nc(Nc2ccc(C(=O)NC3CCOC3=O)cc2)sc1C(=O)c1c(F)cccc1F (stereo not shown) [Example G129]
[reply] 0%

[ask] Provide only the value of recorded HCT-116 % Inhibition at 0.1 μM for Nc1nc(Nc2ccc(C(=O)Nc3ccccc3N3CCOCC3)cc2)sc1C(=O)c1c(F)cccc1F [Example G146]
[reply] 1%

[ask] Retrieve HCT-116 % Inhibition at 0.1 μM measured for Nc1nc(Nc2ccc(C(=O)NC(CO)c3ccccc3)cc2)sc1C(=O)c1c(F)cccc1F (stereo not shown) [Example G155] and print it.
[reply] 0%

----------
# TARGET UNDER TEST: CDK2/cyclin A (Homo sapiens, UniProt P24941)
# Construct: made in house; host or cells: CDK2: insect cells (baculovirus); cyclin A: E. coli
# METHOD NOTES: Inhibition of CDK2/cyclin A retinoblastoma kinase activity (Ki; % inhibition)
# Format: biochemical
# TEST CONTEXT: 0.03 μM compound
Each entry below carries its reported CDK2 % Inhibition at 0.03 μM.
// units = %; emit number, no label

[ask] // Input: Nc1nc(Nc2ccc(C(=O)NCCSCCO)cc2)sc1C(=O)c1c(F)cccc1F . Output its CDK2 % Inhibition at 0.03 μM only.
[reply] 1

[ask] Retrieve CDK2 % Inhibition at 0.03 μM measured for Nc1nc(Nc2ccc(C(=O)NC3CCOC3=O)cc2)sc1C(=O)c1c(F)cccc1F (stereo not shown) and print it.
[reply] 18

[ask] Assign CDK2 % Inhibition at 0.03 μM to the following record: NC(=O)C(CO)NC(=O)c1ccc(Nc2nc(N)c(C(=O)c3c(F)cccc3F)s2)cc1 (stereo not shown)
[reply] 19

----------
Overview of reported CDK4 % Inhibition at 0.03 μM across a group of molecules:
# TARGET UNDER TEST: human CDK4/cyclin D3 (Homo sapiens)
# Construct: made in house; host or cells: insect cells co-infected with baculovirus vectors
# Sequence (P11802 whole entry): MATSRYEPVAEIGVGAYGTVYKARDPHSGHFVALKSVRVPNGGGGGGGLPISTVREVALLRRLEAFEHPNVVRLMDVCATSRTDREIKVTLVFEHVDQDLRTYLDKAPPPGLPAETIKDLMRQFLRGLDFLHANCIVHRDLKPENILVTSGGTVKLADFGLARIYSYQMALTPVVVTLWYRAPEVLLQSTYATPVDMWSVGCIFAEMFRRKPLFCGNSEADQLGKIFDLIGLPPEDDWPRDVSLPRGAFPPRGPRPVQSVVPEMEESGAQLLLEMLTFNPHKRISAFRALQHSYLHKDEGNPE
# Sequence (P30281 1-264 partner limits assumed): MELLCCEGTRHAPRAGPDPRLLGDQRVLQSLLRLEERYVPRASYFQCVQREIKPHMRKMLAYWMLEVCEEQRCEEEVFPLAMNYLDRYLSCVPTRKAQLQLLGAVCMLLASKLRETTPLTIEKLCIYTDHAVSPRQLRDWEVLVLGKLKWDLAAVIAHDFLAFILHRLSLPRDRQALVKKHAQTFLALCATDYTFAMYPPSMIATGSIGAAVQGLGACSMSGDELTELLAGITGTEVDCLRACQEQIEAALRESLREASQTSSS
# METHOD NOTES: Inhibition of CDK4/cyclin D retinoblastoma kinase activity (Ki; % inhibition)
# Assay type: biochemical
# TEST CONTEXT: 0.03 μM compound
Please respond with the number in % and leave the unit unwritten.

[ask] Jot down CDK4 % Inhibition at 0.03 μM (human CDK4/cyclin D3 (Homo sapiens)) of CN(C)CCN1CCN(C(=O)c2ccc(Nc3nc(N)c(C(=O)c4c(F)cccc4F)s3)cc2)CC1 .
[reply] 8

[ask] Give the observed CDK4 % Inhibition at 0.03 μM of Nc1nc(Nc2ccc(C(=O)N[C@@H]3CCN(Cc4ccccc4)C3)cc2)sc1C(=O)c1c(F)cccc1F for human CDK4/cyclin D3 (Homo sapiens).
[reply] 22

[ask] Fill: CDK4 % Inhibition at 0.03 μM (human CDK4/cyclin D3 (Homo sapiens)) for this molecule Nc1nc(Nc2ccc(C(=O)NCCc3ccc(Cl)cc3)cc2)sc1C(=O)c1c(F)cccc1F
[reply] 7

[ask] Name the value of CDK4 % Inhibition at 0.03 μM reported for COc1cccc(CNC(=O)c2ccc(Nc3nc(N)c(C(=O)c4c(F)cccc4F)s3)cc2)c1OC when tested on human CDK4/cyclin D3 (Homo sapiens).
[reply] 14

----------
Listing of recorded HCT-116 % Inhibition at 0.1 μM by entry.
# System: HCT-116 cell line
# METHOD NOTES: Inhibition of cell growth, MTT tetrazolium salt assay
# Type: cell-based
# TEST CONTEXT: HCT-116 cells, 0.1 μM compound
Just the number in %, nothing appended.

Past entries and their recorded results:
{"COMPOUND": "Nc1nc(Nc2ccc(C(=O)NCc3ccc(F)c(F)c3)cc2)sc1C(=O)c1c(F)cccc1F", "REPORTED METRIC": "HCT-116 % Inhibition at 0.1 μM", "NUMBER": 27}
{"COMPOUND": "CCN(CCNC(=O)c1ccc(Nc2nc(N)c(C(=O)c3c(F)cccc3F)s2)cc1)c1cccc(C)c1", "REPORTED METRIC": "HCT-116 % Inhibition at 0.1 μM", "NUMBER": 15}
{"COMPOUND": "CN(CCC(O)c1ccccc1)C(=O)c1ccc(Nc2nc(N)c(C(=O)c3c(F)cccc3F)s2)cc1 (stereo not shown)", "REPORTED METRIC": "HCT-116 % Inhibition at 0.1 μM", "NUMBER": 19}
{"COMPOUND": "Nc1nc(Nc2ccc(C(=O)Nc3cccc(Br)c3)cc2)sc1C(=O)c1c(F)cccc1F", "REPORTED METRIC": "HCT-116 % Inhibition at 0.1 μM", "NUMBER": 9}
{"COMPOUND": "Cc1ccc(O)c(NC(=O)c2ccc(Nc3nc(N)c(C(=O)c4c(F)cccc4F)s3)cc2)c1", "REPORTED METRIC": "HCT-116 % Inhibition at 0.1 μM", "NUMBER": 14}
{"COMPOUND": "CN(C)CCCN1CCN(C(=O)c2ccc(Nc3nc(N)c(C(=O)c4c(F)cccc4F)s3)cc2)CC1", "REPORTED METRIC": "HCT-116 % Inhibition at 0.1 μM", "NUMBER": 17}

We now examine a further compound.
[ask] Identify HCT-116 % Inhibition at 0.1 μM associated with the compound Nc1nc(Nc2ccc(C(=O)NCc3ccc(Cl)c(Cl)c3)cc2)sc1C(=O)c1c(F)cccc1F
[reply] 12

----------
Listed here: items and their measured pKi.
# TARGET UNDER TEST: CDK2/cyclin A (Homo sapiens)
# Construct: cyclin A: E. coli
# METHOD NOTES: Inhibition of CDK2/cyclin A retinoblastoma kinase activity (Ki; % inhibition)
# TEST CONTEXT: apparent Ki, CDK2/cyclin A, Rb substrate
Where a name gives a salt, the structure may show the parent alone.
Lab note: report pKi as minus log10 of the concentration in molar units, number only.

Examples with answers:
{"COMPOUND": "Nc1nc(Nc2ccc(C(=O)NCCn3ccnc3)cc2)sc1C(=O)c1c(F)cccc1F [Example A55, Dihydrochloride Salt]", "REPORTED METRIC": "pKi", "NUMBER": 7.25}
{"COMPOUND": "Nc1nc(Nc2ccc(C(=O)NCC(O)CO)cc2)sc1C(=O)c1c(Cl)cccc1Cl (stereo not shown) [Example B3]", "REPORTED METRIC": "pKi", "NUMBER": 7.18}
{"COMPOUND": "C[C@H](CNC(=O)c1ccc(Nc2nc(N)c(C(=O)c3c(F)cccc3F)s2)cc1)N(C)C [Example A44]", "REPORTED METRIC": "pKi", "NUMBER": 6.92}

The record that follows has no pKi shown yet.
[ask] Provide only the value of recorded pKi for CN(C)C(C)(C)CNC(=O)c1ccc(Nc2nc(N)c(C(=O)c3c(F)cccc3F)s2)cc1 [Example A12]
[reply] 7.04
